- assayed_system: K18 Tau (Homo sapiens, UniProt P10636)
- Construct: K18 Tau was first expressed, collected, and purified; His tag (cleaved yes); made in house
- Sequence (P10636 561-685 limits assumed): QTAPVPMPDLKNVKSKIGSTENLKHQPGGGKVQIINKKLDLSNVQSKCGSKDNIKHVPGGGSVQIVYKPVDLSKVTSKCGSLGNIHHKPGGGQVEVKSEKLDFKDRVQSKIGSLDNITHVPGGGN
- assay_remarks: Tau Kinetics Thioflavin T plate reader assay
- Assay type: biochemical
- test_conditions: 10 μM PLP/Pep; Avg P amplitude divided by Avg Tau amplitude x 100
Listing of entries alongside the reported PLP or Pep/Tau %.
property_measured: PLP or Pep/Tau % (%)

> print(dat)
                                  substance  unit.spec  value
1  TP12: PLP generated from peptide monomers characterized by SEQ ID: 10 (VQPINK)          %      9
2                             VQIINKRR [P4]          %    129
3                           DRVQIVYKRR [P7]          %    126
4                              VQPINK [P12]          %    140
